Reference source: the supplement of paper PMC11061612

Entries annotated with measured Bliss excess
Tested on: Jurkat (T-Lymphoblastic Leukemia);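 further: after 72 h of two-drug dosing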
protocol summary: Bliss excess, mean over the matrix (fraction); higher = more synergy
measured metric: Bliss excess

[[record]]
molecule = "COc1cccc2c1C(=O)c1c(O)c3c(c(O)c1C2=O)C[C@@](O)(C(=O)CO)C[C@@H]3O[C@H]1C[C@H](N)[C@H](O)[C@H](C)O1 [Doxorubicin] + Cc1cc2ncnn2cc1Nc1ncc2c(n1)n(C1CCOCC1)c(=O)n2C [AZD7648] (first compound max 1 µM, 7x7, partner max 10 µM)"
measured_metric = "Bliss excess"
measurement = 0.181

[[record]]
molecule = "CC1(C)CCC(CN2CCN(c3ccc(C(=O)NS(=O)(=O)c4ccc(NCC5CCOCC5)c([N+](=O)[O-])c4)c(Oc4cnc5[nH]ccc5c4)c3)CC2)=C(c2ccc(Cl)cc2)C1 [Venetoclax] + C=CCn1c(=O)c2cnc(Nc3ccc(N4CCN(C)CC4)cc3)nc2n1-c1cccc(C(C)(C)O)n1 [AZD1775] (first compound max 1 µM, partner max 1 µM)"
measured_metric = "Bliss excess"
measurement = -0.0183

[[record]]
molecule = "C=CCn1c(=O)c2cnc(Nc3ccc(N4CCN(C)CC4)cc3)nc2n1-c1cccc(C(C)(C)O)n1 [AZD1775] + C[C@@H]1COCCN1C2=NC(=NC(=C2)C3(CC3)[S@](=N)(=O)C)C4=C5C=CNC5=NC=C4 [AZD6738] (first compound max 1 µM, partner max 10 µM)"
measured_metric = "Bliss excess"
measurement = 0.038

